Measured values drawn from paper PMC8496042 for this set.

target: PAP(248–286) (Homo sapiens)
Sequence (P15309 248-286): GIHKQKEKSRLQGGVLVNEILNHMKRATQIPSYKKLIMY
READOUT TYPE: Kd (µM)
Answer in µM, number only, no unit symbol.

Reported Kd ( O=C1O[C@H]([C@@H](O)CO)C(O)=C1O ) = 8.59
